# System: CCRIS mutagenicity, Ames/micronucleus/aberration tests
# assay remarks: CCRIS mutagenicity studies
# condition info: Test System: AMES SALMONELLA TYPHIMURIUM; Strain/Indicator: TA100; Metabolic Activation: NONE; Method: PREINCUBATION
Active and inactive are the calls of the source. No rule for the calls is given here.
Please state which outcome applies, choosing from active, inactive

Could you kindly confirm the outcome this assay logged for O[C@@H]1[C@@H]2O[C@@H]2c2c(ccc3cc4ccc5ccccc5c4nc23)[C@H]1O ?
active

Hey, what did the test say about Cc1cc(=O)[nH]c(=S)[nH]1 ?
inactive

How was CNC(=O)c1ccccc1 classified in this test?
inactive

Given c1ccc2nccnc2c1 , state the outcome it received in this test.
inactive

For this compound, state the assay outcome: ClCC(Cl)CCl
inactive

Which outcome was entered for the compound O=C/C=C/c1ccccc1 in this test?
inactive

Which outcome was entered for the compound CC(Cl)Cl in this test?
inactive

For O=[N+]([O-])c1ccccc1CBr , what call appears in the results of this test?
inactive

Status in this test for Oc1cc(Cl)c(Cl)c(Cl)c1 ?
inactive

Any idea what this test logged for CC(=O)Nc1cccc(N)c1C(=O)O ?
inactive

So what was the verdict on O=C1C=C2C(=CCOC2O)O1 (centres undefined) in this test?
inactive

# fetch the recorded call for CNNCc1ccc(C(=O)NC(C)C)cc1 here
inactive

Each compound tested received a call. Report the one for CCN(CC)CCCC(C)Nc1cc(OC)cc2cccnc12 (centres undefined) .
inactive

# lookup: test call for Nc1ccc(Cc2ccc(N)c(C(=O)O)c2)cc1C(=O)O
inactive

// param item: CC(C)c1ccccc1O ; yields the recorded call
inactive

Called result for CC/C=C/C=O
inactive

Which outcome did this test record for the compound COC(=O)NC(=S)Nc1ccccc1NC(=S)NC(=O)OC ?
inactive

Short answer needed: outcome of this test for CC(C)CN(CC(C)C)CC(C)C ?
inactive

Recorded call for Oc1ccc(-c2ccc(O)cc2)cc1 ?
inactive

Give the logged outcome of this assay for the following compound: CC(=O)c1c(C)c([N+](=O)[O-])c(C(C)(C)C)c([N+](=O)[O-])c1C
inactive

So what was the verdict on CC(=O)OCc1ccc([N+](=O)[O-])cc1 in this test?
active

Call for entry O=[N+]([O-])c1ccc2cc3ccccc3cc2c1 :
active

How did this test come out for CC(=O)N[C@@H](CSC(Cl)=C(Cl)Cl)C(=O)O ?
active

Lab log entry: COc1nncc2ncccc12 — outcome as called in the assay?
inactive

Where these numbers come from: PubChem BioAssay AID1259407
